Test system: SK-OV-3
Test: NCI tumour cell line growth inhibition, 48 h
The source made the active and inactive calls. No stated cut-off is given here; in the data, active = GI50 up to about 1.1 µM and inactive = higher. Where a SMILES comes first, the peptide text is derived from it. The star is where a group is joined. Boc = CC(C)(C)OC(=O)*
Respond using exactly one of the listed classes: active, inactive

Illustrative cases are given below, each with its answer.
CC(=O)c1nc(C#N)c(N)o1 | inactive
Nc1ccc(C(=O)N/C(=C\c2ccc3c(c2)OCO3)c2nc3ccccc3s2)cc1 | inactive
O=C1/C(=C\c2cccc(Oc3ccccc3)c2)S(=O)(=O)C(c2ccccc2)N1c1cccc(Cl)c1 (stereo unspecified) | inactive
O=[N+]([O-])c1ccc2nc(/C(=N/Nc3ccccc3)C(O)c3ccc(C(O)/C(=N\Nc4ccccc4)c4nc5ccc([N+](=O)[O-])cc5nc4O)cc3)cnc2c1 (stereo unspecified) | inactive
COC(=O)c1nc(N)nc(O)c1-c1ccc(Cl)cc1 | inactive

Exercise: Hey, what did the test say about CCCC(=O)OCC1OC(n2cc(F)c(=O)[nH]c2=O)CC1OC(=O)CCC (stereo unspecified) ?
Key: inactive

Exercise: Hey, what did the test say about COC(=O)C1=CC(=O)OC1(OO)c1ccccc1 (stereo unspecified) ?
Key: inactive

Exercise: Hey, what did the test say about O=C(O)COc1cc(-c2ccccc2F)nc2cc3c(cc12)OCO3 ?
Key: inactive

Exercise: Hey, what did the test say about O=C1CSC2=NCC3(NN12)c1ccccc1-c1ccccc13 ?
Key: inactive

Exercise: Hey, what did the test say about COc1cc2ccc(C(C)NCC#N)cc2cc1OC (stereo unspecified) ?
Key: inactive

Exercise: Hey, what did the test say about CC(=O)CC(=O)N1CCOC1=O ?
Key: inactive

Exercise: Hey, what did the test say about C[n+]1cccc2c(=O)c3ccccc3oc21 ?
Key: inactive

Exercise: Hey, what did the test say about CCOC(=O)C1(CC(=O)O)CCCC1=O (stereo unspecified) ?
Key: inactive

Exercise: Hey, what did the test say about CCN(CC)C(=S)SS(=O)(=O)c1ccc(Cl)cc1 ?
Key: inactive

Exercise: Hey, what did the test say about O=C(Cc1ccc2ccccc2c1)NCc1ccc(C(=O)NCCc2ccccc2)cc1 ?
Key: inactive

Exercise: Hey, what did the test say about O=C(O)[C@H]1NC[C@H]2C(Br)=NO[C@@H]12 ?
Key: inactive

Exercise: Hey, what did the test say about CC(C)(C)OC(=O)NCC(=O)NCC(=O)NCC(=O)NCC(=O)O (Boc-GGGG-OH) ?
Key: inactive

Exercise: Hey, what did the test say about C=C1COC(O)(C2OCOC(C3CC(=O)NC(=O)C3)C2O)C1C (stereo unspecified) ?
Key: active

Exercise: Hey, what did the test say about COC1CCC(OC2CC(C3(C)CCC4(CC(O)C(C)C(C(C)/C=C(\C)C(=O)C(C)CC(C)C(=O)O)O4)O3)OC3(OC(C4OC(O)(CO)C(C)CC4C)CC3C)C2C)OC1C (stereo unspecified) ?
Key: active

Exercise: Hey, what did the test say about Clc1ccc(-c2nnc(-c3c(Cl)c(Cl)c(Cl)c(Cl)c3-c3nc4ccccc4[nH]3)o2)cc1 ?
Key: inactive

Exercise: Hey, what did the test say about O=C1c2ccccc2C(=O)c2c1oc(=O)c1ccccc21 ?
Key: inactive
